These entries and their values trace back to the NIST ThermoML archive (doi:10.1021/je050159x).

Details: 298.15 K
REPORTED_METRIC: surface tension liquid-gas (mN/m)

[
  {
    "MOLECULE": "CCCCCCCCC [nonane]",
    "REPORTED_METRIC": "surface tension liquid-gas",
    "TEST_VALUE": 22.49
  },
  {
    "MOLECULE": "CCCCCC [hexane]",
    "REPORTED_METRIC": "surface tension liquid-gas",
    "TEST_VALUE": 18.03
  },
  {
    "MOLECULE": "C1CCCCC1 [cyclohexane]",
    "REPORTED_METRIC": "surface tension liquid-gas",
    "TEST_VALUE": 24.45
  }
]

[I] OCc1ccccc1 [benzenemethanol]
[II] CCCCCCC [heptane]
Incoming: Of I and II , which carries the smaller reported surface tension liquid-gas figure? Reply briefly: the label of your chosen item.
Outgoing: II

* * *

Conditions: 303.15 K
REPORTED_METRIC: surface tension liquid-gas (mN/m)

[
  {
    "MOLECULE": "CCCCCC [hexane]",
    "UNIT_NAME": "mN/m",
    "TEST_VALUE": 17.44
  },
  {
    "MOLECULE": "CCCCCCCCC [nonane]",
    "UNIT_NAME": "mN/m",
    "TEST_VALUE": 22.04
  },
  {
    "MOLECULE": "CCCCCCC [heptane]",
    "UNIT_NAME": "mN/m",
    "TEST_VALUE": 19.1
  }
]

[1] OCc1ccccc1 [benzenemethanol]
[2] C1CCCCC1 [cyclohexane]
Incoming: Of 1 and 2 , which carries the smaller reported surface tension liquid-gas figure? Reply briefly: the label of your chosen item.
Outgoing: 2
(2: 23.87 mN/m, 1: 38.12 mN/m)

* * *

Conditions: 293.15 K
REPORTED_METRIC: surface tension liquid-gas (mN/m)

// below: answered compounds
[
  {
    "MOL_SMILES": "CCCCCCC",
    "REPORTED_METRIC": "surface tension liquid-gas",
    "UNIT_NAME": "mN/m",
    "TEST_VALUE": 20.05
  },
  {
    "MOL_SMILES": "C1CCCCC1",
    "REPORTED_METRIC": "surface tension liquid-gas",
    "UNIT_NAME": "mN/m",
    "TEST_VALUE": 25.06
  }
]

[I] CCCCCC
[II] OCc1ccccc1
Incoming: Of I and II , which carries the smaller reported surface tension liquid-gas figure? Reply briefly: the label of your chosen item.
Outgoing: I

* * *

Conditions: 313.15 K; 101.33 kPa; Liquid
REPORTED_METRIC: mass density (kg/m3)

[
  {
    "MOL_SMILES": "CCCCCC",
    "mass density [kg/m3]": 641.4
  },
  {
    "MOL_SMILES": "CCCCCCC",
    "mass density [kg/m3]": 680
  },
  {
    "MOL_SMILES": "CCCCCCCCC",
    "mass density [kg/m3]": 694.2
  },
  {
    "MOL_SMILES": "OCc1ccccc1",
    "mass density [kg/m3]": 1029.8
  },
  {
    "MOL_SMILES": "C1CCCCC1",
    "mass density [kg/m3]": 759.6
  }
]
